// koff lookup, one value per entry
Molecular target: T1, C-terminally FLAG-tagged human Gas6 recombinant protein (hGas6-F) (human, UniProt Q14393 31-678, gamma-carboxylated glutamic acid residues in the Gla domain (producer cells co-express rat VKOR and human GGCX); positions not given)
T1 construct: also called human Gas6-F; human Gas6 protein
T1 sequence: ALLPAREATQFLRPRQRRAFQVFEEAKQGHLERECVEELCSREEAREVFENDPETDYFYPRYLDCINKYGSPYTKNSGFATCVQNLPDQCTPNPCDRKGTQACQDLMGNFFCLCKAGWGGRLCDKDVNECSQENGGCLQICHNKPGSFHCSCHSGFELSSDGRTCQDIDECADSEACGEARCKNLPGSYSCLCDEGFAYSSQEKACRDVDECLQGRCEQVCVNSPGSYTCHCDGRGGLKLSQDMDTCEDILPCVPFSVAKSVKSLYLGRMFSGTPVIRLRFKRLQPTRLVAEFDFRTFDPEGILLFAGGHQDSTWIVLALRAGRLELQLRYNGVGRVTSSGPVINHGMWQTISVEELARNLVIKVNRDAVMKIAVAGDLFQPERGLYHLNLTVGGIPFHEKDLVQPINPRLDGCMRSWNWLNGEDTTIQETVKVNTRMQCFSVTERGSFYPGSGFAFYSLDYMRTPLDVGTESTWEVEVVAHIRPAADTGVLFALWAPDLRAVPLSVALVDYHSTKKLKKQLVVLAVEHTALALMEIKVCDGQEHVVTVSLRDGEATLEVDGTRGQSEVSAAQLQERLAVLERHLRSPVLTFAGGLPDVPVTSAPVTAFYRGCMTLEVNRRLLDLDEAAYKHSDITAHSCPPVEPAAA
Assay: SPR Biacore T100, captured antibody, Gas6 analyte, first test
Answer format: numeric, s⁻¹ implied, no suffix.

binder	units symbol	obs value
hzKM5321 LV7bHV0 antibody (antibody, V domains shown, Humanized; variant human IgG4 constant region (EU S228P, L235E, R409K), human kappa; also called B-10; LV7bHV0) VH: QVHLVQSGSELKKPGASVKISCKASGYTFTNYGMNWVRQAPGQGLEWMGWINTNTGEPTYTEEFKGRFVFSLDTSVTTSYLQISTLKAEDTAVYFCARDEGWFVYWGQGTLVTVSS VL: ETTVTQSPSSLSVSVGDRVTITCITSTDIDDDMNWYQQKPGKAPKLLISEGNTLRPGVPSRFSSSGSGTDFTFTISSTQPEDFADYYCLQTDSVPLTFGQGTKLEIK	s⁻¹	0.000242
hzKM5320 LV3HV8 antibody (antibody, V domains shown, Humanized; variant human IgG4 constant region (EU S228P, L235E, R409K), human kappa; also called A-15) VH: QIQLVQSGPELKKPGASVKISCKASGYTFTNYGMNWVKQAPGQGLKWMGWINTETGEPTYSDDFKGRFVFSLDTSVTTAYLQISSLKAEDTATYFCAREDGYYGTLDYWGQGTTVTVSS VL: DVVMTQSPDSLAVSLGERVTINCKASQSVSNDVAWYQQKPGQSPKVLIYYASNRYTGVPDRFSGSGSGTDFTFTISSLQAEDVAVYFCQQDYSSPWTFGQGTKLEIK	s⁻¹	0.000174
hzKM5320 LV5HV3b antibody (antibody, V domains shown, Humanized; variant human IgG4 constant region (EU S228P, L235E, R409K), human kappa; also called A-22) VH: QIQLVQSGSELKKPGASVKISCKASGYTFTNYGMNWVRQAPGQGLEWMGWINTETGEPTYSDDFKGRFVFSLDTSVSTAYLQISSLKAEDTAVYFCAREDGYYGTLDYWGQGTTVTVSS VL: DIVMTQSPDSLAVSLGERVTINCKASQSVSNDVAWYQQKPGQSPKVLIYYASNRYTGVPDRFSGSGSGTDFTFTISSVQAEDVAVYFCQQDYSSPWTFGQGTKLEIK	s⁻¹	0.000153

q: Find the recorded koff belonging to hzKM5320 LV5HV8 antibody (antibody, V domains shown, Humanized; variant human IgG4 constant region (EU S228P, L235E, R409K), human kappa; also called A-16) VH: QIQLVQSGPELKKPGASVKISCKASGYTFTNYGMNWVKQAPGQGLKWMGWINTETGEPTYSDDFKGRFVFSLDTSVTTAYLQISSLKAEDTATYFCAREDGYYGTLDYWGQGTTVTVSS VL: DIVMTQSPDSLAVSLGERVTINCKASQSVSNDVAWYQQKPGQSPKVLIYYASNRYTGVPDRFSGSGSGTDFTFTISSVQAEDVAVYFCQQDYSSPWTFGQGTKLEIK and report it.
a: 0.000155

q: Any idea what koff was measured for hzKM5320 LV3HV0 antibody (antibody, V domains shown, Humanized; variant human IgG4 constant region (EU S228P, L235E, R409K), human kappa; also called A-07) VH: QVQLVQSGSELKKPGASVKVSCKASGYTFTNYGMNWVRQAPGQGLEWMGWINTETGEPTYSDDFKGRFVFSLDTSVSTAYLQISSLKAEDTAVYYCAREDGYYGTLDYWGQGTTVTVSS VL: DVVMTQSPDSLAVSLGERVTINCKASQSVSNDVAWYQQKPGQSPKVLIYYASNRYTGVPDRFSGSGSGTDFTFTISSLQAEDVAVYFCQQDYSSPWTFGQGTKLEIK ?
a: 0.000209
